# tested-target: K11-Ub2 (Homo sapiens)
measurement-type: Kd

Exercise: Under K11-Ub2 (Homo sapiens): report Kd of `O=S(=O)(O)c1ccc2c(ccc3nn(-c4ccc(/C=C/c5ccc(-n6nc7ccc8cc(S(=O)(=O)O)ccc8c7n6)cc5S(=O)(=O)O)c(S(=O)(=O)O)c4)nc32)c1` .
Solution: 1830 nM

###

# tested-target: Ub^R42E (Homo sapiens, UniProt P0CG48, R42E)
# protocol-description: NMR titration of 15N-labeled Ub^R42E
# Type: binding
# experimental-parameters: read-out: Dissociation constant, Ub^R42E (NMR titration); Table 2
measurement-type: Kd

Exercise: In one line, give reported Kd of the entry `O=S(=O)(O)c1ccc2c(ccc3nn(-c4ccc(/C=C/c5ccc(-n6nc7ccc8cc(S(=O)(=O)O)ccc8c7n6)cc5S(=O)(=O)O)c(S(=O)(=O)O)c4)nc32)c1` .
Solution: 396 µM
